experiment: Inhibition of ATP-stimulated [Ca2+] influx into macrophages loaded with fluorescent indicator fura-2-acetoxymethyl at 50 nM concentration of compound; assay type: functional; settings: Homo sapiens
metric.name: inhibition at 0.05 µM (%)
Form entry: value (%) — number only.

O=C([C@@H]1Cc2ccc(OS(=O)(=O)c3cccc4cccnc34)cc2CN1S(=O)(=O)c1cccc2cccnc12)N1CCN(c2ccccc2)CC1 :: 6.9
CN([C@@H](Cc1ccc(OS(=O)(=O)c2cccc3cnccc23)cc1)C(=O)N1CCN(c2ccccc2)CC1)S(=O)(=O)c1cccc2cnccc12 :: 94.4
O=C([C@@H]1Cc2ccc(OS(=O)(=O)c3cccc4cnccc34)cc2CN1S(=O)(=O)c1cccc2cnccc12)N1CCN(c2ccccc2)CC1 :: 1.66
O=C([C@@H]1Cc2ccc(OS(=O)(=O)c3cccc4ncccc34)cc2CN1S(=O)(=O)c1cccc2ncccc12)N1CCN(c2ccccc2)CC1 :: 59

# input molecule: `O=C([C@@H]1Cc2ccc(OS(=O)(=O)c3cccc4ccccc34)cc2CN1S(=O)(=O)c1cccc2ccccc12)N1CCN(c2ccccc2)CC1` ; wanted: its inhibition at 0.05 µM
0

----------
assay: Inhibition of ATP-stimulated [Ca2+] influx into macrophages loaded with fluorescent indicator fura-2-acetoxymethyl at 500 nM concentration of compound; format: functional; conditions: Homo sapiens
metric.name: inhibition at 0.5 µM (%)
Form entry: value (%) — number only.

Study these solved cases before continuing.
O=C([C@@H]1Cc2ccc(OS(=O)(=O)c3cccc4cnccc34)cc2CN1S(=O)(=O)c1cccc2cnccc12)N1CCN(c2ccccc2)CC1 :: 34.5
O=C([C@@H]1Cc2ccc(OS(=O)(=O)c3cccc4ncccc34)cc2CN1S(=O)(=O)c1cccc2ncccc12)N1CCN(c2ccccc2)CC1 :: 72.4
CN([C@@H](Cc1ccc(OS(=O)(=O)c2cccc3cnccc23)cc1)C(=O)N1CCN(c2ccccc2)CC1)S(=O)(=O)c1cccc2cnccc12 :: 100
O=C([C@@H]1Cc2ccc(OS(=O)(=O)c3cccc4cccnc34)cc2CN1S(=O)(=O)c1cccc2cccnc12)N1CCN(c2ccccc2)CC1 :: 3.4

From here, focus on the item given below.
# input compound: `O=C([C@@H]1Cc2ccc(OS(=O)(=O)c3cccc4ccccc34)cc2CN1S(=O)(=O)c1cccc2ccccc12)N1CCN(c2ccccc2)CC1` ; wanted: its inhibition at 0.5 µM
0

----------
assay: Inhibition of ATP-stimulated [Ca2+] influx into macrophages loaded with fluorescent indicator fura-2-acetoxymethyl at 1000 nM concentration of compound; type: functional; conditions: Homo sapiens
Catalogue of inhibition at 1 µM readings, one per entry.
Form entry: value (%) — number only.

Study these solved cases before continuing.
O=C([C@@H]1Cc2ccc(OS(=O)(=O)c3cccc4cnccc34)cc2CN1S(=O)(=O)c1cccc2cnccc12)N1CCN(c2ccccc2)CC1 :: 25.8
O=C([C@@H]1Cc2ccc(OS(=O)(=O)c3cccc4ncccc34)cc2CN1S(=O)(=O)c1cccc2ncccc12)N1CCN(c2ccccc2)CC1 :: 66
O=C([C@@H]1Cc2ccc(OS(=O)(=O)c3cccc4ccccc34)cc2CN1S(=O)(=O)c1cccc2ccccc12)N1CCN(c2ccccc2)CC1 :: 0
O=C([C@@H]1Cc2ccc(OS(=O)(=O)c3cccc4cccnc34)cc2CN1S(=O)(=O)c1cccc2cccnc12)N1CCN(c2ccccc2)CC1 :: 0

From here, focus on the item given below.
# input compound: `CN([C@@H](Cc1ccc(OS(=O)(=O)c2cccc3cnccc23)cc1)C(=O)N1CCN(c2ccccc2)CC1)S(=O)(=O)c1cccc2cnccc12` ; wanted: its inhibition at 1 µM
100
